# Target system: T1, HLA-A*02:01 (human)
# T1 construct: whole, on cells; Empty class I molecule on TAP-deficient T2-A24 cells; detected with anti-HLA-A02 antibody BB7.2
# Assay: T2-A24 MHC class I stabilization, flow cytometry, anti-HLA-A02 BB7.2-FITC, peptide 100 ug/mL
Quick reference for MFI (solvent ratio) among some binders

MFI (solvent ratio) reported for this binder KLKSSWATGL [As70_10] : 1.1 ratio to solvent

Memo: QIDVDTVFEV (41-50 follows from start and length) [As41_10] , reported MFI (solvent ratio): 1.2 ratio to solvent

The binder LVLLDHNATI [As92_10] showed MFI (solvent ratio) equal to 2.6 ratio to solvent

The reported measurements were obtained from patent US20170360911A1.
